subject_of_test: T1, cynomolgus monkey IL-33 expressed with a C-terminal hexahistidine tag (cynomolgus monkey)
T1 construct: also called MfIL-33-6His; Mf-IL-33-6His
T1 chain: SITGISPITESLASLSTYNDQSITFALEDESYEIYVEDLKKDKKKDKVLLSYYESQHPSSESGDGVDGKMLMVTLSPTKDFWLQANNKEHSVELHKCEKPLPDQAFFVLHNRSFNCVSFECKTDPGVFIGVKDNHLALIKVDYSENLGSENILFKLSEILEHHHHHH
method_notes: SPR 25C, pH6.0 chase, mAb captured
property_measured: t½
Kindly write the number and append the unit.

Reported t½, binder H4H9675P (antibody, human IgG4, V domains shown, Human IgG4 Fc (H4H)) VH: EVQLVESGGNLEQPGGSLRLSCTASGFTFSRSAMNWVRRAPGKGLEWVSGISGSGGRTYYADSVKGRFTISRDNSKNTLYLQMNSLSAEDTAAYYCAKDSYTTSWYGGMDVWGHGTTVTVSS VL: DIQMTQSPSSVSASVGDRVTITCRASQGIFSWLAWYQQKPGKAPKLLIYAASSLQSGVPSRFSGSGSGTDFTLTISSLQPEDFAIYYCQQANSVPITFGQGTRLEIK : ____ 7 min

Reported t½, binder H4H9640P (antibody, human IgG4, V domains shown, Human IgG4 Fc (H4H)) VH: QVQLQESGPGLVKPSETLSLTCTVSGGSISSYYWSWIRQPPGKGLELIGYIYYSGSTNYNPSLKSRVTISVDTSKNHFSLKLSSVTAADTAVYYCARSQYTSSWYGSFDIWGQGTMVTVSS VL: DIQMTQSPSSVSASVGDRVTITCRASQGISTWLAWFQQKPGKAPKLLIYAASTLQGGVPSRFSGSGSGPEFTLTISSLQPEDFATYYCQQANSFPWTFGQGTKVEIK : ____ 23 min
